assay: Solubility in water at 37° C. (excess powder, CoQ10 passing into solution by UV or HPLC); assay type: physicochemical; conditions: thermodynamic from solid, after 24 hours (balanced)
REPORTED PROPERTY: solubility at 24 h (µg/mL)
Hi! Could you send only the number? It should be in µg/mL, unit omitted.

Reported solubility at 24 h for COC1=C(OC)C(=O)C(C/C=C(\C)CC/C=C(\C)CC/C=C(\C)CC/C=C(\C)CC/C=C(\C)CC/C=C(\C)CC/C=C(\C)CC/C=C(\C)CC/C=C(\C)CCC=C(C)C)=C(C)C1=O was 4

###

Assay: Solubility in water at 37° C. (excess powder, CoQ10 passing into solution by UV or HPLC)
Format: physicochemical
Conditions: thermodynamic from solid, after 1 hour
Protocol: The solubility in water at 37° C. (physiological temperature) of the composition according to the present invention was compared with that of the compositions in the examples of comparison. Verification is carried out after 1 hour and 24 hours (balanced) using the suitable analytical method (for example UV or HPLC spectrophotometry) of the maximum quantity of coenzyme Q10 that passes into the solution.
REPORTED PROPERTY: solubility at 1 h (µg/mL)
Hi! Could you send only the number? It should be in µg/mL, unit omitted.

Reported solubility at 1 h for COC1=C(OC)C(=O)C(C/C=C(\C)CC/C=C(\C)CC/C=C(\C)CC/C=C(\C)CC/C=C(\C)CC/C=C(\C)CC/C=C(\C)CC/C=C(\C)CC/C=C(\C)CCC=C(C)C)=C(C)C1=O was 1
